Where do the numbers come from? From ChEMBL document CHEMBL4043125.

# TARGET SYSTEM: Acetylcholinesterase (Homo sapiens) (UniProt P22303)
# Sequence (P22303 whole entry): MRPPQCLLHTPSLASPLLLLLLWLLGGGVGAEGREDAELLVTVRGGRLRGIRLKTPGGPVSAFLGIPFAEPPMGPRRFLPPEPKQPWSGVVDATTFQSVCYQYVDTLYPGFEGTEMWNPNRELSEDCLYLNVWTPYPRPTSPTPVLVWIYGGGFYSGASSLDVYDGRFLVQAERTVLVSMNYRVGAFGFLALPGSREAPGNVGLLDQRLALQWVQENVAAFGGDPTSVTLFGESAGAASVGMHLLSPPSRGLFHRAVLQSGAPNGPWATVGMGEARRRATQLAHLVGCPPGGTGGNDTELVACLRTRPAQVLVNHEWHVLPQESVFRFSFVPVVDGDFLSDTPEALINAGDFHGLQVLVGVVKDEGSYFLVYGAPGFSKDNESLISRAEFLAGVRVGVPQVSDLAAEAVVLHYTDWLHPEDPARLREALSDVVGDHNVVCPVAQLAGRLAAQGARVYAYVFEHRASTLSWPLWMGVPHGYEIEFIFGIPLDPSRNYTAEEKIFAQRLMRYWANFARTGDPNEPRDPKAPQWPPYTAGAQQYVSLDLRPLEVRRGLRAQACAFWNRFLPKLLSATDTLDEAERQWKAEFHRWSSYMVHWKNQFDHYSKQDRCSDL
# TEST: Inhibition of AChE (unknown origin) at 10 uM using acetylthiocholine iodide as substrate preincubated for 10 mins followed by substrate addition measured after 15 mins by spectrophotometric analysis relative to control
OUTCOME MEASURE: inhibition
Give the value; after it, write the unit.

Some entries whose results are on file:
O=C(Cc1ccccc1B(O)O)N1CCC(Oc2ccc(C(F)(F)F)cc2)CC1 = 9%
O=C(Cc1ccc(Cl)cc1B(O)O)N1CCC(Oc2ccc(C(F)(F)F)cn2)CC1 = 8%

Problem: Item under review: `O=C(Cc1ccccc1B(O)O)N1CCC(Oc2ccc(C(F)(F)F)cn2)CC1` . Reported inhibition?
Solution: 7%

Problem: For the compound shown here, `O=C(Cc1ccccc1B(O)O)N1CCC(Oc2ccc(C(F)(F)F)nc2)CC1` , give the reported inhibition.
Solution: 6%

Problem: Which inhibition is listed for `COc1ccc(CC(=O)N2CCC(Oc3ccc(C(F)(F)F)cn3)CC2)c(B(O)O)c1` ?
Solution: 9%

Problem: For the compound `O=C(Cc1ccc(F)cc1B(O)O)N1CCC(Oc2ccc(C(F)(F)F)cn2)CC1` , what inhibition is on record?
Solution: 7%

Problem: GET /values?readout=inhibition&item= O=C(C(O)c1ccccc1B(O)O)N1CCC(Oc2ccc(C(F)(F)F)cn2)CC1 (configuration not stated)
Solution: -4%
